Assay Explanation: Approximate solubility in phosphate buffer
Run Conditions: phosphate buffer, pH 7, aqueous buffer
Observation Type: solubility

// query What value of solubility has been recorded for this entry: Nc1ccccc1C(=O)O [o-Aminobenzoic acid, o-aminobenzoic acid]
// result > 2000 mM
